Recorded pIC50 by entry
Biological target: CDK9/CycT1 (Homo sapiens (Human), UniProt P50750)
Sequence (P50750 whole entry): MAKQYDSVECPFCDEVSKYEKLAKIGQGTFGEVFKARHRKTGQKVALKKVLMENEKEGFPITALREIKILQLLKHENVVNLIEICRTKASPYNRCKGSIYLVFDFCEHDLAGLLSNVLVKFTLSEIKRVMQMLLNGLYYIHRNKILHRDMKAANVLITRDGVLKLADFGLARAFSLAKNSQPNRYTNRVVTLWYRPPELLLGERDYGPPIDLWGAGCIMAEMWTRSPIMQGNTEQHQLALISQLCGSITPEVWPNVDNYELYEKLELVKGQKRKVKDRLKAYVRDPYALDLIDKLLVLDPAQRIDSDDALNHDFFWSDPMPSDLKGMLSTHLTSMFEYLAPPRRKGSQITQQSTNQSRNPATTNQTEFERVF
Sequence (O60563 whole entry partner): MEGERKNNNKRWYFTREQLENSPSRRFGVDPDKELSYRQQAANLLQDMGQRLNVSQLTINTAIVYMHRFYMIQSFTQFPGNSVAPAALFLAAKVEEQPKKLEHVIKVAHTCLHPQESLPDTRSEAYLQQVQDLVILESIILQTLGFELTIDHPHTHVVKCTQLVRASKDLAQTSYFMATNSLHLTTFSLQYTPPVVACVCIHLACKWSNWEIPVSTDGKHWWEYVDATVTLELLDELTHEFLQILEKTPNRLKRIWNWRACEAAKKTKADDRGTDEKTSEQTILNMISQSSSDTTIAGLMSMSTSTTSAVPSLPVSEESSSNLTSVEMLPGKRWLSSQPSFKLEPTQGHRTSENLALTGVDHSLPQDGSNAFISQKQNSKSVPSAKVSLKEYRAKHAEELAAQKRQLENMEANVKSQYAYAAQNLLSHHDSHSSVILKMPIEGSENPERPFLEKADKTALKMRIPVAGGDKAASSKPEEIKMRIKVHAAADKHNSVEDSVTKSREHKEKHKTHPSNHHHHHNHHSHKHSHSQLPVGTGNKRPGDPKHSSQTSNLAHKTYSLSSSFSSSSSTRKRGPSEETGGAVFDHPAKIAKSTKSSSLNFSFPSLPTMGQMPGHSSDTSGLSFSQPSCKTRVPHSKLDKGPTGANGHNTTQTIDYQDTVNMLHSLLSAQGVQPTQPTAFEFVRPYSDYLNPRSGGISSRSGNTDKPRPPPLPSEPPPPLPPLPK
Assay: CDK9/CycT1 kinase assay (Method 1a)
Format: biochemical
Settings: 10 μM ATP
pIC50 is defined as minus the log10 of a concentration measured in mol/L.

>>> print(df.to_string())
                                   compound                            assayed_system  meas_value
0  CS(=N)(=O)Cc1cc(Cl)cc(Nc2ncc(F)c(-c3ccc(F)cc3F)n2)c1 (racemic) [Example 15]  CDK9/CycT1 (Homo sapiens (Human), UniProt P50750)        7.62
1  CS(=O)(Cc1cc(Nc2ncc(F)c(-c3ccc(F)cc3F)n2)cc(S(F)(F)(F)(F)F)c1)=NC#N (single isomer, unassigned) [Example 29]  CDK9/CycT1 (Homo sapiens (Human), UniProt P50750)        8.30
2  Cc1cc(CS(C)(=N)=O)cc(Nc2ncc(F)c(-c3ccc(F)cc3F)n2)c1 (single isomer, unassigned) [Example 37]  CDK9/CycT1 (Homo sapiens (Human), UniProt P50750)        7.44

Kindly review the next compound as well.
Report pIC50 from CDK9/CycT1 (Homo sapiens (Human), UniProt P50750) testing of CS(=O)(Cc1cc(Nc2ncc(F)c(-c3ccc(F)cc3F)n2)cc(S(F)(F)(F)(F)F)c1)=NC#N (racemic) [Example 28]
8.22

###

Biological target: CDK9/CycT1 (Homo sapiens (Human))
Assay: CDK9/CycT1 kinase assay (Method 1a)
Type: biochemical
Settings: 10 μM ATP
Recorded IC50 by entry
Express it in nM; write the number only.

See these solved cases before continuing.
>>> df
                                   molecule  meas_value
0  CS(=N)(=O)Cc1cc(Nc2ncc(F)c(-c3ccc(F)cc3F)n2)cc(S(F)(F)(F)(F)F)c1 (single isomer, unassigned) [Example 31]          54
1  CS(=O)(Cc1cc(Nc2ncc(F)c(-c3ccc(F)cc3F)n2)cc(C(F)(F)F)c1)=NC#N (single isomer, unassigned) [Example 2]           7

Give IC50 for the following molecule: CS(=O)(Cc1cc(Nc2ncc(F)c(-c3ccc(F)cc3F)n2)cc(S(F)(F)(F)(F)F)c1)=NC#N (single isomer, unassigned) [Example 30]
4

Give IC50 for the following molecule: CS(=O)(Cc1cc(Nc2ncc(F)c(-c3ccc(F)cc3F)n2)cc(C(F)(F)F)c1)=NC#N (racemic) [Example 1]
13

Give IC50 for the following molecule: CS(=O)(Cc1cc(Nc2ncc(F)c(-c3ccc(F)cc3F)n2)cc(C(F)(F)F)c1)=NC#N (single isomer, unassigned) [Example 3]
8

Give IC50 for the following molecule: CS(=O)(Cc1cc(Nc2ncc(F)c(-c3ccc(F)cc3F)n2)cc(C(F)(F)F)c1)=NC(N)=O (single isomer, unassigned) [Example 24]
10

###

Recorded IC50 by entry
Biological target: CDK9/CycT1 (Homo sapiens (Human))
Experiment: CDK9/CycT1 kinase assay (Method 1a)
Type: biochemical
Conditions: 10 μM ATP
Express it in nM; write the number only.

In [3]: df
Out[3]:
                                   compound  meas_value
0  CS(=N)(=O)Cc1cc(Nc2ncc(F)c(-c3ccc(F)cc3F)n2)cc(S(F)(F)(F)(F)F)c1 (single isomer, unassigned) [Example 32]           6
1  CS(=O)(Cc1cc(Nc2ncc(F)c(-c3ccc(F)cc3F)n2)cc(C(F)(F)F)c1)=NC(N)=O (racemic) [Example 7]          12
2  CS(=N)(=O)Cc1cc(Br)cc(Nc2ncc(F)c(-c3ccc(F)cc3F)n2)c1 (single isomer, unassigned) [Example 41]          18
3  CS(=O)(Cc1cc(Nc2ncc(F)c(-c3ccc(F)cc3F)n2)cc(S(F)(F)(F)(F)F)c1)=NC(N)=O (single isomer, unassigned) [Example 33]          16

Kindly review the next compound as well.
Report IC50 from CDK9/CycT1 (Homo sapiens (Human)) testing of CS(=N)(=O)Cc1cc(Nc2ncc(F)c(-c3ccc(F)cc3F)n2)cc(C(F)(F)F)c1 (racemic)
10

Values from patent US9499492B2
